test system: A375; test: CellTiter-Glo cell viability, A375; format: cell-based; conditions: A375 cells, 72 h with compound
So I've got a bunch of molecules here, and I need their pIC50 values.
Reminder that pIC50 is minus the log10 of a molar concentration.

Value lookup for pIC50; key = COc1ccc2c(=O)c(-c3cccc(CC[P+](c4ccccc4)(c4ccccc4)c4ccccc4)c3)coc2c1OC
6.12

Value lookup for pIC50; key = COc1ccc2c(=O)c(-c3cccc(C[P+](c4ccccc4)(c4ccccc4)c4ccccc4)c3)coc2c1OC
5.82

Value lookup for pIC50; key = COc1ccc2c(=O)c(-c3ccc(CCCCCCCC[P+](c4ccccc4)(c4ccccc4)c4ccccc4)cc3)coc2c1OC
6.62

Value lookup for pIC50; key = COc1ccc2c(=O)c(-c3ccc(CCCCCC[P+](c4ccccc4)(c4ccccc4)c4ccccc4)cc3)coc2c1OC.[Cl-]
6.68

Value lookup for pIC50; key = COc1ccc2c(=O)c(-c3ccc(CCCCCCCCCC[P+](c4ccccc4)(c4ccccc4)c4ccccc4)cc3)coc2c1OC.[Cl-]
6.68
